# System: T47D
# experiment: NCI tumour cell line growth inhibition, 48 h
Activity calls are given as the source filed them. No stated cut-off is given here; in the data, active = GI50 up to about 1.1 µM and inactive = higher.
The following compounds are shown together with reported GI50 values.

Solved cases (4 shown):
1. CCOC(=O)C(C)c1nc2c(Cl)c3ncccc3cc2[nH]c1=O (stereo not given) ... 64.3 µM (inactive)
2. CC(C)=NOC(=O)OC[C@H]1O[C@@H](n2cnc3c(N)ncnc32)C(O)C1O (stereo not given in full) ... > 100 µM (inactive)
3. O=c1oc2ccc([N+](=O)[O-])cc2c(Nc2ccc3c(c2)S(=O)(=O)c2ccccc2O3)c1[N+](=O)[O-] ... > 100 µM (inactive)
4. COc1cc2c(OC)c3cc(C)oc(=O)c3c(O)c2c(O)c1-c1c(OC)cc2c(OC)c3cc(C)oc(=O)c3c(O)c2c1O ... 36.4 µM (inactive)

Kindly consider the entry below.
For this compound ( `O=C(C(Cl)Cl)N(O)c1ccccc1OCc1ccccc1` ), measured GI50 is 19.1 µM (inactive)
